# Condition set: acidic group
Result type: pKa

INSERT INTO assay_data (compound, result_type, result_number) VALUES
  ('Cc1ccc(C(=O)O)cc1C', 'pKa', 4.41),
  ('Nc1c[nH]nc1[N+](=O)[O-]', 'pKa', 9.5),
  ('CC#CC#CC=C=C[C@@H](O)CCC(=O)O', 'pKa', 4.9),
  ('Oc1cc[nH+]cc1O', 'pKa', 3.6),
  ('O=C(O)[C@@H]1O[C@H](Oc2ccc3oc4cccc(O)c4c(=O)c3c2)[C@@H](O)[C@H](O)[C@H]1O', 'pKa', 3.94),
  ('O=C([O-])c1cc2ccccc2cc1O', 'pKa', 12.2),
  ('Cc1cccc(C(=O)O)[nH+]1', 'pKa', 0.9),
  ('COc1ccc2c(c1)nnn2O', 'pKa', 5.07),
  ('O=c1cccccc1O', 'pKa', 6.87),
  ('Cc1cc(C)cc(C(=O)O)c1', 'pKa', 4.3),
  ('N#CC(C#N)C(C#N)C#N', 'pKa', 3.6),
  ('O=C1NC(=O)[C@@H]2CCC[C@H]12', 'pKa', 9.53),
  ('O=C(c1ccccc1)c1cc[nH]n1', 'pKa', 12),
  ('N#CCCC(=O)O', 'pKa', 3.98),
  ('C[C@H]1CC[C@@H](C(=O)O)CC1', 'pKa', 5.04),
  ('CN(CCC[NH+](C)C)C(=O)/C=N/O', 'pKa', 8.68),
  ('CN(C)c1cccc2c(S(N)(=O)=O)cccc12', 'pKa', 9.9),
  ('Nc1ccc(S(=O)(=O)Nc2ccc(Br)nc2)cc1', 'pKa', 7.12),
  ('Cc1ccc(O)c2[n+]1CCS2', 'pKa', 4.7),
  ('C=CCC1(C2C=CCCC2)C(=O)NC(=S)NC1=O (configuration not stated)', 'pKa', 7.25),
  ('O=[Se](O)c1ccc(-c2ccccc2)cc1', 'pKa', 4.53),
  ('O=C(O)CSc1[nH]c2cc3ccccc3cc2[nH+]1', 'pKa', 1.9),
  ('NC1=[NH+][C@@H](CC(=O)O)C(=O)N1CCCC([NH3+])C(=O)O (some centres not stated)', 'pKa', 1.86),
  ('O=C1Oc2ccccc2C(=O)C1Cc1c([O-])c2ccccc2oc1=O (configuration not stated)', 'pKa', 8.3),
  ('Nc1ccc(B(O)O)c([N+](=O)[O-])c1', 'pKa', 9.64),
  ('CC[C@@H]1OC(=O)[C@@H](C)[C@H](O)[C@@H](C)[C@H](O[C@H]2O[C@@H](C)C[C@@H]([N+](C)(C)O)[C@@H]2O)[C@]2(C)C[C@H](C)C3(O[C@]1(C)C=C3C)O2', 'pKa', 4.3),
  ('CN1c2ccccc2Nc2c(O)cccc21', 'pKa', 9.26),
  ('Cc1ccc(O)c(Cc2cc([N+](=O)[O-])ccc2[O-])c1', 'pKa', 11.5),
  ('Oc1ccc(-c2ccccc2)cc1', 'pKa', 9.47),
  ('CC(=O)C(C)[N+](=O)[O-] (configuration not stated)', 'pKa', 5.15),
  ('O=C(O)/C=C/c1cccc(O)c1', 'pKa', 4.4),
  ('N[C@@H](Cc1nc[nH]c1I)C(=O)[O-]', 'pKa', 12.4),
  ('Cc1cccc(C)c1NC(=S)c1ccccc1', 'pKa', 10.8),
  ('Cn1cnc(/N=N/O)n1', 'pKa', 5.48),
  ('Oc1c(I)cc(I)c2cccnc12', 'pKa', 8),
  ('Oc1c(Cl)cc(Cl)c(Cl)c1C[NH+]1CCCCC1', 'pKa', 5.06),
  ('Oc1ccc(/N=N/c2nccs2)c(O)c1', 'pKa', 1.56),
  ('Nc1n[nH]cc1[N+](=O)[O-]', 'pKa', 9.73),
  ('O=[N+]([O-])c1cccc(/C=C/C=N/O)c1', 'pKa', 10.2),
  ('Oc1c(Br)cc(Br)c2cccnc12', 'pKa', 7.3),
  ('CC[NH+](CC)Cc1cc(Br)ccc1O', 'pKa', 7.7),
  ('CC(C)=CCC1C(=O)C(CC=C(C)C)(CC=C(C)C)C(O)(C(=O)[O-])C1=O (configuration not stated)', 'pKa', 9.7),
  ('O=C(O)Cc1ccco1', 'pKa', 3.72),
  ('CS(=O)(=O)NC(N)=O', 'pKa', 5.1),
  ('O=C([O-])C[NH+](CCNS(=O)(=O)c1ccccc1)CC(=O)[O-]', 'pKa', 7.82),
  ('O=C(O)[C@@H]1O[C@H](Oc2c[nH+]c3ccccc3c2)[C@@H](O)[C@H](O)[C@H]1O', 'pKa', 3),
  ('Cc1ccc(C(=S)Nc2ccc(F)cc2)cc1', 'pKa', 11),
  ('COCc1ccc(C(=O)O)cc1', 'pKa', 4.18),
  ('COCCO', 'pKa', 14.9),
  ('[NH3+]c1cccc(C(=O)O)c1', 'pKa', 3.09),
  ('Cc1ncc(CO)c(CO)c1O', 'pKa', 8.98),
  ('CC(C)C(Br)C(=O)O (configuration not stated)', 'pKa', 2.82),
  ('CC(=O)CC(=O)C(C)C', 'pKa', 9.46),
  ('CC(C)(C)C1C(=O)NC(=O)NC1=O', 'pKa', 7.98),
  ('O=c1cc(-c2cccc(O)c2)oc2ccccc12', 'pKa', 9.75),
  ('Oc1ccc(/C=N/c2ncc3nc[nH]c3n2)cc1', 'pKa', 8.62),
  ('COc1ccc(-c2nc3nnc(SC)nc3[nH]2)c(OC)c1', 'pKa', 7.69);

###

# Condition set: basic group
// reported pKa for each item listed
Result type: pKa

INSERT INTO results (compound, result_type, result) VALUES
  ('Cc1ccc(C)nc1', 'pKa', 6.4),
  ('C[C@@H]1CN[C@@H](C)CN1', 'pKa', 9.76),
  ('Cc1cc(C(c2ccc(N)cc2)c2ccc(N)cc2)ccc1N', 'pKa', 4.9),
  ('O=Cc1ccc(-c2cnc(-c3ccccc3)o2)cc1', 'pKa', 0.57),
  ('CC(C)CN', 'pKa', 10.4),
  ('CCN(C)NC', 'pKa', 6.85),
  ('O=Cc1ccc(-c2ncc(-c3ccccc3)o2)cc1', 'pKa', 0.02),
  ('Cc1ccc(N2CCCC2)cc1', 'pKa', 4.69),
  ('Nc1ccnc2c([O-])cccc12', 'pKa', 10.7),
  ('Nc1ncc(Sc2ccccc2)s1', 'pKa', 4.16),
  ('CC(=O)NC(Cc1c[nH]cn1)C(=O)[O-] (stereo unspecified)', 'pKa', 7.11),
  ('C[Si](C)(C)CN', 'pKa', 10.9),
  ('OCc1ccccn1', 'pKa', 4.66),
  ('c1cnccn1', 'pKa', 0.57),
  ('Cc1cc(CO)c(C)c(C)n1', 'pKa', 7.3),
  ('NCCC(=O)Oc1ccc([N+](=O)[O-])cc1', 'pKa', 9.17);

###

# Condition set: acidic group
Note: every record was labeled by where its pKa sits among range A = under 4, range B = from 4 up to 7, range C = 7 and over

INSERT INTO assay_data (molecule, class_label) VALUES
  ('[NH3+]CCCCCC#CC#CCCC(=O)O', 'range B'),
  ('CN(C)c1ccc(C(=O)O)cc1', 'range B'),
  ('COC(=O)c1ccccc1O', 'range C'),
  ('CC(C)(C)C(=O)NC(O)C(Cl)(Cl)Cl (stereo not given)', 'range C'),
  ('NCc1ccc(S(N)(=O)=O)cc1', 'range C'),
  ('[NH3+]C(Cc1c[nH]c2ccccc12)C(=O)O (stereo not given)', 'range A'),
  ('C[N+](C)(C)c1cc([N+](=O)[O-])ccc1O', 'range B'),
  ('Cc1ccc(S(=O)(=O)N(CCNCC(=O)[O-])CC(=O)[O-])cc1', 'range C'),
  ('C=C(C)[C@@H]1C[NH2+][C@H](C(=O)O)[C@@H]1CC(=O)O', 'range A'),
  ('c1ccc(-c2nc3ccccc3[nH]2)nc1', 'range C'),
  ('COc1cccc(CCC(=O)O)c1', 'range B'),
  ('CO[n+]1ccc(O)cc1', 'range A'),
  ('NC(=S)Nc1ccc(Cl)cc1', 'range C'),
  ('CC(C)C[C@H]([NH3+])C(=O)N[C@@H](Cc1c[nH]c[nH+]1)C(=O)O', 'range A'),
  ('O=c1ccn([C@@H]2C[C@@H](O)[C@H](CO)O2)c(=O)[nH]1', 'range C'),
  ('COc1ccccc1/C=C/C(=O)O', 'range B'),
  ('CC(=O)C(C)C(=O)C(C)C (stereo not given)', 'range C'),
  ('CC(O)[C@@H]1C[NH2+][C@H](C(=O)[O-])[C@H]1CC(=O)O (stereo not given in full)', 'range B'),
  ('O=C([O-])C(CO)[NH2+]Cc1cc([N+](=O)[O-])ccc1O (stereo not given)', 'range B'),
  ('O=C(O)CCCP', 'range B'),
  ('CC(=O)c1cc([N+](=O)[O-])ccc1C(=O)O', 'range A'),
  ('CC[NH+](CC)Cc1cc(Cl)ccc1O', 'range C'),
  ('N#Cc1ccc(NS(=O)(=O)c2ccccc2)cc1', 'range B'),
  ('O=C(O)CSc1ccc([N+](=O)[O-])cc1', 'range A'),
  ('N#CO', 'range A'),
  ('CC#CC(=O)O', 'range A'),
  ('Cc1cccc2oc(=O)cc(O)c12', 'range B'),
  ('O=C(O)Cc1cccc2ccccc12', 'range B');
